Molecular target: TLR9 (Homo sapiens, UniProt Q9NR96)
Construct: lymphocytes, monocytes and dendritic cells that express TLR7, TLR8 and TLR9; endogenous in cells; host or cells: human PBMCs from healthy donors
Sequence (Q9NR96 26-1032): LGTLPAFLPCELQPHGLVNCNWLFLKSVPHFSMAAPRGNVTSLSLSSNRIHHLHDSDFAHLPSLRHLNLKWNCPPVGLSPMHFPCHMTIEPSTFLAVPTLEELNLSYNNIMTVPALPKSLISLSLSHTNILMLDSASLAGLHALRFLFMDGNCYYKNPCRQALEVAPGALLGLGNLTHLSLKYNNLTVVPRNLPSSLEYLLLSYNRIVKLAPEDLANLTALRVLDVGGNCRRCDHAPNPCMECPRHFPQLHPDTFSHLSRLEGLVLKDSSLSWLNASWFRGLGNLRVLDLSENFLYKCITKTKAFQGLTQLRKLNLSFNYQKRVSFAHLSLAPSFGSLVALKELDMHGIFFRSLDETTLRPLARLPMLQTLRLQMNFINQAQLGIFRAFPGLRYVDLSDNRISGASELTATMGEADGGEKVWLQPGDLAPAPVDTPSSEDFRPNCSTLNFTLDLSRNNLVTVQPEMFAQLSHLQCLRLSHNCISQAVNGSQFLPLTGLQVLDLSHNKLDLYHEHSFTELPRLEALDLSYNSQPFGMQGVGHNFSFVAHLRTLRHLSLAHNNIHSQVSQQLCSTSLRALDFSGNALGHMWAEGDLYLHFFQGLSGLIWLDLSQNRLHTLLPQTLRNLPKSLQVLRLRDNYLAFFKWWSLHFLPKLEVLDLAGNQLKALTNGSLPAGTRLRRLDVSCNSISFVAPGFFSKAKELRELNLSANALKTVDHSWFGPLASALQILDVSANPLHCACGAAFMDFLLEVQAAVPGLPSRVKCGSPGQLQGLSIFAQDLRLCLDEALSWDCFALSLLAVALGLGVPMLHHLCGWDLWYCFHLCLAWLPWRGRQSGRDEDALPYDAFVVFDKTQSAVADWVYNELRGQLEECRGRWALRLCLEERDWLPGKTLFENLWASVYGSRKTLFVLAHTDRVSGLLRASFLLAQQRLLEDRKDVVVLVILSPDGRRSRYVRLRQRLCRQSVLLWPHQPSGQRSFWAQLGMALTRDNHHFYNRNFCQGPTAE
Assay: Human PBMC cell-based assay, TLR9 agonist ODN-2216 stimulation, cytokine (IL-6 and IFNα) readout
Conditions: human PBMCs, ODN-2216 3 μM, 6 hours; Table 26; read-out: TLR-9 EC50
What EC50 was measured for each of the following?
Response body: numeric value in nM, unit text excluded.

[in] Need EC50 of Cc1cc(-c2[nH]c3cc(-c4cnc5c(c4)CNCC5)ccc3c2C)cc(C)n1 , thanks.
[out] 50.5

[in] Need EC50 of Cc1cc(-c2[nH]c3cc(-c4ccc5c(c4)CC(N)C5)ccc3c2C)cc(C)n1 (stereo not shown) , thanks.
[out] 88.5

[in] Need EC50 of Cc1cc(-c2[nH]c3cc(-c4ccnc(N(C)C)c4)ccc3c2C)cc(C)n1 , thanks.
[out] 601

[in] I'd like to know its EC50. The molecule in question is Cc1c(-c2cn(C)c(=O)n(C)c2=O)[nH]c2cc(-c3ccc(N4CCNCC4)nc3)ccc12
[out] 540

---

Would you mind telling me the reported pEC50 of each entry?
Molecular target: TLR7 (Homo sapiens, UniProt Q9NYK1)
Construct: lymphocytes, monocytes and dendritic cells that express TLR7, TLR8 and TLR9; endogenous in cells; host or cells: human PBMCs from healthy donors
Sequence (Q9NYK1 27-1049): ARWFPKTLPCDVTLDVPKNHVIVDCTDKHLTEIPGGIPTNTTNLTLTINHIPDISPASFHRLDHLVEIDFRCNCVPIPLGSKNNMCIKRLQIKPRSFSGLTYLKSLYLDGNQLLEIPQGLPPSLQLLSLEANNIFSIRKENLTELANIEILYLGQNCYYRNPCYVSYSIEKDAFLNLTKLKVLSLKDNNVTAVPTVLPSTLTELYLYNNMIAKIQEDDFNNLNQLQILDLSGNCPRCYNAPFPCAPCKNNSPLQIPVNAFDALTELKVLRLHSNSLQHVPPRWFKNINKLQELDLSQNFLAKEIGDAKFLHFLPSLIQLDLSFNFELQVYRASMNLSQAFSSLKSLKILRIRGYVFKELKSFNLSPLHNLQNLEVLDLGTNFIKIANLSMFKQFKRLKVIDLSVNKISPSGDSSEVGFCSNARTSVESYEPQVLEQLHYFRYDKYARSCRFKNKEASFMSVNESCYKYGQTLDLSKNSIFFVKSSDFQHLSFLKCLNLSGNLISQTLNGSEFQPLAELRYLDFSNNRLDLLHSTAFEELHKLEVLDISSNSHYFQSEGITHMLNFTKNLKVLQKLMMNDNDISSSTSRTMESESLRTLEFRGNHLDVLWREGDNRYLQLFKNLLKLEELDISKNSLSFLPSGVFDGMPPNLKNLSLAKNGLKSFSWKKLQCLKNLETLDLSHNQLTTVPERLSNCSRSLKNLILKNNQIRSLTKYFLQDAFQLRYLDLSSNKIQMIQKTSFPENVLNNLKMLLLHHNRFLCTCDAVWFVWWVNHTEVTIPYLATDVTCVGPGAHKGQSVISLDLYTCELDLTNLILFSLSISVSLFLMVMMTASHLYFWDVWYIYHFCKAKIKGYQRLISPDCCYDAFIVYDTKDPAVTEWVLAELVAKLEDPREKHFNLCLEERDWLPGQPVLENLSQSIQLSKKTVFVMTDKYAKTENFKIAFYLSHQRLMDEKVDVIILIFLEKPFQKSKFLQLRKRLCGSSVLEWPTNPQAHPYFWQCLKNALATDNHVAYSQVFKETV
Assay: Human PBMC cell-based assay, TLR7 agonist GS-986 stimulation, cytokine (IL-6 and IFNα) readout
Settings: human PBMCs; Table 27 comparison; read-out: TLR-7 EC50
pEC50 here is simply -log10 of the concentration when that concentration is written in mol/L.

[in] May I ask what pEC50 has been recorded for Cc1cc(-c2[nH]c3ccc(-c4ccc(N5CCC(C)(N)CC5)nc4)cc3c2C(C)C)cc(C)n1 [Example D, reference compound] ?
[out] 7.92

[in] Record request: pEC50 value, item Cc1cc(-c2[nH]c3ccc(-c4ccnc(N5CCNCC5)c4)cc3c2C(C)C)cc(C)n1 [Example B, reference compound]
[out] 8.11

[in] Which value of pEC50 has been reported for Cc1cc(-c2[nH]c3ccc(C4CCCNC4)cc3c2C(C)C)cc(C)n1 (stereo not shown) [Example C, reference compound] in the records?
[out] 8.64

---

What EC50 was measured for each of the following?
Molecular target: TLR9 (Homo sapiens)
Construct: lymphocytes, monocytes and dendritic cells that express TLR7, TLR8 and TLR9; endogenous in cells; host or cells: human PBMCs from healthy donors
Assay: Human PBMC cell-based assay, TLR9 agonist ODN-2216 stimulation, cytokine (IL-6 and IFNα) readout
Details: human PBMCs, ODN-2216 3 μM, 6 hours; Table 26; read-out: TLR-9 EC50
Just the number please, in µM, no unit attached.

[in] What measured EC50 goes with COc1cc(-c2ccc3c(C)c(-c4cc(C)nc(C)c4)[nH]c3c2)ccn1 ?
[out] 3.04

[in] Using the record for Cc1cc(-c2[nH]c3cc(-c4ccc(N)nc4)ccc3c2C)cc(C)n1 , report its EC50.
[out] 0.227

[in] Would you kindly share the measured EC50 for Cc1cc(-c2[nH]c3cc(-c4cnc5c(c4)ncn5C)ccc3c2C)cc(C)n1 ?
[out] 1.07

[in] What does the record list as EC50 for Cc1cc(-c2[nH]c3cc(-c4ccc(N5CCNCC5)nc4)ccc3c2C)c(C)cn1 ?
[out] 1.25

---

Biological target: TLR7 (Homo sapiens, UniProt Q9NYK1)
Construct: lymphocytes, monocytes and dendritic cells that express TLR7, TLR8 and TLR9; endogenous in cells; host or cells: human PBMCs from healthy donors
Experiment: Human PBMC cell-based assay, TLR7 agonist GS-986 stimulation, cytokine (IL-6 and IFNα) readout
Conditions: human PBMCs, GS-986 400 nM, 6 hours; Table 26; read-out: TLR-7 EC50
// classify: if (EC50 < 0.01 µM) Condition met else Condition not met

[in] Hi there! Is EC50 for Cc1cc(-c2[nH]c3cc(-c4cnc(N5CCNCC5)c(C)c4)ccc3c2C)cc(C)n1 [Example 3] below 0.01 µM, do you know?
[out] Condition not met

[in] Given COCCN1CCN(c2ccc(-c3ccc4c(C)c(-c5cc(C)nc(C)c5)[nH]c4c3)cn2)CC1 [Example 117] , is recorded EC50 strictly lower than 0.01 µM?
[out] Condition not met

[in] Does Cc1cc(-c2[nH]c3cc(-c4ccc(N5CCNCC5)nc4)ccc3c2C#N)cc(C)n1 [Example 101] have EC50 strictly under 0.01 µM?
[out] Condition not met

[in] Lab note: confirm whether the reported EC50 for this molecule is below 0.01 µM, equality not counting. molecule: Cc1cc(-c2[nH]c3cc(-c4cnn(CCN)c4)ccc3c2C)cc(C)n1 [Example 16]
[out] Condition not met

[in] Dear reviewer, please state whether Cc1cc(-c2[nH]c3cc(-c4ccc(N5CCNCC5)nc4)ccc3c2C)cn(C)c1=O [Example 94] has EC50 strictly beneath 0.01 µM.
[out] Condition met

[in] # TODO verify EC50 < 0.01 µM strictly for this molecule: CCc1c(-c2cc(C)c3ncnn3c2)[nH]c2cc(-c3ccc(N4CCN(CC(N)=O)CC4)nc3)ccc12 [Example 177]
[out] Condition met

[in] For Cc1cc(-c2[nH]c3cc(-c4ccc(N5CCN(C)CC5)nc4)ccc3c2C)cc(C)n1 [Example 41] , is the recorded EC50 below the cut-off of 0.01 µM?
[out] Condition not met

[in] Is it true that EC50 reported for Cc1cc(-c2[nH]c3cc(C4CCCNC4)ccc3c2C)cc(C)n1 (centres unmarked) [Example 53] is less than 0.01 µM?
[out] Condition not met

---

Target: TLR9 (Homo sapiens)
Construct: lymphocytes, monocytes and dendritic cells that express TLR7, TLR8 and TLR9; endogenous in cells; host or cells: human PBMCs from healthy donors
Assay: Human PBMC cell-based assay, TLR9 agonist ODN-2216 stimulation, cytokine (IL-6 and IFNα) readout
Details: human PBMCs, ODN-2216 3 μM, 6 hours; Table 26; read-out: TLR-9 EC50
For each entry below, report its pEC50 value.
Scale explanation: pEC50 corresponds to minus log10 of a concentration expressed in moles per litre.

[in] Looking for the measured pEC50 of Cc1cc(-c2[nH]c3cc(-c4ccc(N5CCN(C(=O)[C@@H]6CCCN6)CC5)nc4)ccc3c2C)cc(C)n1 , can you help?
[out] 7.38

[in] Looking for the measured pEC50 of Cc1cc(-c2[nH]c3cc(-c4cnn(C5CCNCC5)c4)ccc3c2C)cc(C)n1 , can you help?
[out] 7.07

[in] I have this molecule here, Cc1cc(-c2[nH]c3cc(-c4ccc(C5=CCCNC5)nc4)ccc3c2C)cc(C)n1 , and I need its recorded pEC50.
[out] 7.52

[in] Which value of pEC50 has been reported for Cc1cc(-c2[nH]c3cc(-c4ccc(N5CCN(CCO)C(=O)C5)nc4)ccc3c2C)cc(C)n1 in the records?
[out] 6.51

[in] Looking for the measured pEC50 of Cc1cc(-c2[nH]c3cc(-c4ccc(N5CCC(N)CC5)nc4)ccc3c2C2CC2)cc(C)n1 , can you help?
[out] 7.36

[in] Reported pEC50 for Cc1cc(-c2[nH]c3cc(-c4ccc(N5CC[N+](CCN(C)C)(CCN(C)C)CC5)nc4)ccc3c2C)cc(C)n1 : what is it?
[out] 6.72

[in] # pEC50 lookup, item Cc1cc(-c2[nH]c3cc(-c4nnc(C5CCNCC5)o4)ccc3c2C)cc(C)n1
[out] 7.26

[in] Would you kindly share the measured pEC50 for Cc1cc(-c2[nH]c3cc(-c4ccc(N5CCNCC5)nc4)ccc3c2C)c2ccccc2n1 ?
[out] 6.12
